- ASSAY_TARGET: HLA-B*15:03
- EXPERIMENTAL_PROTOCOL: IEDB peptide-MHC binding, purified MHC/competitive/radioactivity; filed as Kd, often an IC50 or EC50 that approximates it; bounds were set here for any values at or beyond the usual limits of such assays
- CONDITION_LABEL: source organism: Vaccinia virus WR
pKd: −log10 of the molar value.
Quick rule: pKd of at least 8 means 1.0, below that means 0.0.

# ITEM_SEQUENCE, LABEL_CLASS
records = [
    ("IKYMIGNFM", 1.0),
    ("KKNNRVLCF", 1.0),
    ("KSIEQHPVV", 0.0),
    ("VIIMAINVF", 0.0),
    ("SKSRRLNLF", 1.0),
    ("FARDNQISF", 1.0),
    ("ITKINTHLA", 0.0),
    ("FLVIAINAM", 0.0),
    ("LTFKACDHI", 0.0),
    ("FANPLSNPF", 1.0),
]

* * *

- ASSAY_TARGET: HLA-A*68:02
- EXPERIMENTAL_PROTOCOL: IEDB peptide-MHC binding, purified MHC/direct/fluorescence; filed as Kd, often an IC50 or EC50 that approximates it; bounds were set here for any values at or beyond the usual limits of such assays
- CONDITION_LABEL: source organism: Orthohantavirus andesense

# ITEM_SEQUENCE, Kd
records = [
    ("LEEDIQHFL", "≥ 20 µM"),
]

* * *

- ASSAY_TARGET: HLA-A*11:01
- EXPERIMENTAL_PROTOCOL: IEDB peptide-MHC binding, purified MHC/direct/fluorescence; filed as Kd, often an IC50 or EC50 that approximates it; bounds were set here for any values at or beyond the usual limits of such assays
- CONDITION_LABEL: source organism: Burkholderia mallei
ENDPOINT_NAME: Kd (nM)

# ITEM_SEQUENCE, ASSAY_TARGET, VALUE_OBSERVED
records = [
    ("LTQRRTTPR", "HLA-A*11:01", 52.6),
]

* * *

- ASSAY_TARGET: HLA-A*31:01
- EXPERIMENTAL_PROTOCOL: IEDB peptide-MHC binding, purified MHC/competitive/radioactivity; filed as Kd, often an IC50 or EC50 that approximates it; bounds were set here for any values at or beyond the usual limits of such assays
- CONDITION_LABEL: source organism: Mammarenavirus guanaritoense

# ITEM_SEQUENCE, UNIT_ANNOTATION, Kd
measured = [
    ("CCNWLDRCR", "µM", 13.5),
    ("FFTTSLFLH", "µM", 1.19),
]

* * *

- ASSAY_TARGET: HLA-A*30:02
- EXPERIMENTAL_PROTOCOL: IEDB peptide-MHC binding, purified MHC/competitive/radioactivity; filed as Kd, often an IC50 or EC50 that approximates it; bounds were set here for any values at or beyond the usual limits of such assays
- CONDITION_LABEL: source organism: Mammarenavirus machupoense
pKd: −log10 of the molar value.
Item-by-item account of pKd

# ITEM_SEQUENCE, INEQUALITY_OPERATOR, pKd
measured = [
    ("CMLNNSFYY", "=", 8.26),
    ("RAEVSLHEV", "≤", 4.39),
    ("LITEQFLCY", "=", 5.73),
]

* * *

Item-by-item account of Kd
- ASSAY_TARGET: HLA-A*31:01
- EXPERIMENTAL_PROTOCOL: IEDB peptide-MHC binding, purified MHC/direct/fluorescence; filed as Kd, often an IC50 or EC50 that approximates it; bounds were set here for any values at or beyond the usual limits of such assays
- CONDITION_LABEL: source organism: Marburg virus - Musoke, Kenya, 1980

# ITEM_SEQUENCE, Kd
measured = [
    ("VPAWLPLGI", "≥ 20 µM"),
    ("TVLEFILQK", "0.119 µM"),
    ("LYKTIVNIW", "≥ 20 µM"),
    ("IISTNTLGK", "≥ 20 µM"),
]

* * *

- ASSAY_TARGET: HLA-B*46:01
- EXPERIMENTAL_PROTOCOL: IEDB peptide-MHC binding, purified MHC/direct/fluorescence; filed as Kd, often an IC50 or EC50 that approximates it; bounds were set here for any values at or beyond the usual limits of such assays
- CONDITION_LABEL: source organism: Influenza A virus (A/Hong Kong/507/97(H5N1))

# ITEM_SEQUENCE, Kd
data = [
    ("LAKSVFNSL", "≥ 20 µM"),
]

* * *

- ASSAY_TARGET: HLA-C*15:02
- EXPERIMENTAL_PROTOCOL: IEDB peptide-MHC binding, purified MHC/direct/fluorescence; filed as Kd, often an IC50 or EC50 that approximates it; bounds were set here for any values at or beyond the usual limits of such assays
- CONDITION_LABEL: source organism: Burkholderia mallei SAVP1
pKd: −log10 of the molar value.
ENDPOINT_NAME: pKd

# ITEM_SEQUENCE, INEQUALITY_OPERATOR, VALUE_OBSERVED
data = [
    ("YARRYFYPL", "=", 7.96),
    ("WWLEYTASF", "≤", 4.70),
]

* * *

- ASSAY_TARGET: HLA-A*02:11
- EXPERIMENTAL_PROTOCOL: IEDB peptide-MHC binding, purified MHC/direct/fluorescence; filed as Kd, often an IC50 or EC50 that approximates it; bounds were set here for any values at or beyond the usual limits of such assays
- CONDITION_LABEL: source organism: Zaire ebolavirus

# ITEM_SEQUENCE, Kd
measured = [
    ("YFTFDLTAL", "≥ 20 µM"),
    ("LTDRELLLL", "≥ 20 µM"),
    ("WLQKIPLQW", "≥ 20 µM"),
]

* * *

- ASSAY_TARGET: HLA-B*08:01
- EXPERIMENTAL_PROTOCOL: IEDB peptide-MHC binding, purified MHC/competitive/radioactivity; filed as Kd, often an IC50 or EC50 that approximates it; bounds were set here for any values at or beyond the usual limits of such assays
- CONDITION_LABEL: source organism: Dengue virus 3 Martinique/1243/1999

# ITEM_SEQUENCE, ASSAY_TARGET, Kd
data = [
    ("TLLLLGLMIL", "HLA-B*08:01", "890 nM"),
    ("LTQKVVIFIL", "HLA-B*08:01", "3100 nM"),
    ("LAIPPTAGVL", "HLA-B*08:01", "11900 nM"),
    ("LPPEKCDTLL", "HLA-B*08:01", "707 nM"),
]

* * *

- ASSAY_TARGET: HLA-A*26:01
- EXPERIMENTAL_PROTOCOL: IEDB peptide-MHC binding, purified MHC/competitive/radioactivity; filed as Kd, often an IC50 or EC50 that approximates it; bounds were set here for any values at or beyond the usual limits of such assays
- CONDITION_LABEL: source organism: Mammarenavirus lassaense
ENDPOINT_NAME: Kd

# ITEM_SEQUENCE, VALUE_OBSERVED
records = [
    ("VDINLIPLI", "≥ 77.9 µM"),
    ("SLNITTLRAV", "≥ 69.7 µM"),
]

* * *

- ASSAY_TARGET: HLA-A*26:01
- EXPERIMENTAL_PROTOCOL: IEDB peptide-MHC binding, purified MHC/direct/fluorescence; filed as Kd, often an IC50 or EC50 that approximates it; bounds were set here for any values at or beyond the usual limits of such assays
- CONDITION_LABEL: source organism: Brucella suis 1330
ENDPOINT_NAME: Kd

# ITEM_SEQUENCE, VALUE_OBSERVED
data = [
    ("LTDAFHGYH", "≥ 20 µM"),
]

* * *

- ASSAY_TARGET: HLA-A*68:01
- EXPERIMENTAL_PROTOCOL: IEDB peptide-MHC binding, purified MHC/competitive/radioactivity; filed as Kd, often an IC50 or EC50 that approximates it; bounds were set here for any values at or beyond the usual limits of such assays
- CONDITION_LABEL: source organism: Vaccinia virus Copenhagen
ENDPOINT_NAME: Kd (pM)

# ITEM_SEQUENCE, UNIT_ANNOTATION, VALUE_OBSERVED
records = [
    ("RVIWMDAYK", "pM", 827),
]

* * *

- ASSAY_TARGET: HLA-B*57:01
- EXPERIMENTAL_PROTOCOL: IEDB peptide-MHC binding, purified MHC/competitive/fluorescence; filed as Kd, often an IC50 or EC50 that approximates it; bounds were set here for any values at or beyond the usual limits of such assays
- CONDITION_LABEL: source organism: Rickettsia typhi str. Wilmington
ENDPOINT_NAME: Kd

# ITEM_SEQUENCE, VALUE_OBSERVED
data = [
    ("QLEVRSTEV", "≥ 20 µM"),
]
